Each entry below lists one item and its recorded TGI value.
- System: 786-0 renal
- experimentDescription: NCI tumour cell line growth inhibition, 48 h
reportedProperty: TGI

>>> measuredresult("COC(=O)C1Cc2c(OC)ccc(OC)c2CC(C(=O)OC)C1=O (stereo unspecified)")
"> 100 µM"
>>> measuredresult("Cc1[nH]c2c(c1C)S(=O)(=O)c1cc3ccccc3nc1N2")
"30.4 µM"
>>> measuredresult("COC(=O)CCC(=O)NC1=C(NCc2ccccc2)C(=O)c2ccccc2C1=O")
"> 100 µM"
>>> measuredresult("O=[N+]([O-])C1CC/C(=N/O)c2nonc21 (stereo unspecified)")
"> 10 µM"
>>> measuredresult("COC(=O)C1C/C(=C/N(C)C)C(=S)N1 (stereo unspecified)")
"> 100 µM"
>>> measuredresult("CCc1cccc(C)c1NC(=O)c1sc2nc3c(cc2c1N)CCCCC3")
"> 100 µM"
>>> measuredresult("Cc1ccc(S(=O)(=O)NC(=O)C2C(=O)CC3(CCCCC3)CC2=O)cc1")
"> 100 µM"
>>> measuredresult("COc1cccc(-c2nc3sccn3c2-c2ccnc(NCCCNS(=O)(=O)c3cccc(F)c3)c2)c1")
"> 100 µM"
>>> measuredresult("CN(C)CCCOc1ccc(-c2ccc3ncc4c(c3c2)n(C2CCOCC2)c(=O)n4C)cn1")
"12.1 µM"
>>> measuredresult("Cc1nc(C)c(C(=O)NNC(N)=S)cc1C(=O)NNC(N)=S")
"> 100 µM"
>>> measuredresult("OC(c1cc2ccccc2o1)c1cc2ccccc2s1 (stereo unspecified)")
"> 10 µM"
